- Assay target: human Nav1.8/b3 (Homo sapiens, UniProt Q9Y5Y9)
- Construct: expressed in transfected cells; host or cells: CHO
- Sequence (Q9Y5Y9 whole entry): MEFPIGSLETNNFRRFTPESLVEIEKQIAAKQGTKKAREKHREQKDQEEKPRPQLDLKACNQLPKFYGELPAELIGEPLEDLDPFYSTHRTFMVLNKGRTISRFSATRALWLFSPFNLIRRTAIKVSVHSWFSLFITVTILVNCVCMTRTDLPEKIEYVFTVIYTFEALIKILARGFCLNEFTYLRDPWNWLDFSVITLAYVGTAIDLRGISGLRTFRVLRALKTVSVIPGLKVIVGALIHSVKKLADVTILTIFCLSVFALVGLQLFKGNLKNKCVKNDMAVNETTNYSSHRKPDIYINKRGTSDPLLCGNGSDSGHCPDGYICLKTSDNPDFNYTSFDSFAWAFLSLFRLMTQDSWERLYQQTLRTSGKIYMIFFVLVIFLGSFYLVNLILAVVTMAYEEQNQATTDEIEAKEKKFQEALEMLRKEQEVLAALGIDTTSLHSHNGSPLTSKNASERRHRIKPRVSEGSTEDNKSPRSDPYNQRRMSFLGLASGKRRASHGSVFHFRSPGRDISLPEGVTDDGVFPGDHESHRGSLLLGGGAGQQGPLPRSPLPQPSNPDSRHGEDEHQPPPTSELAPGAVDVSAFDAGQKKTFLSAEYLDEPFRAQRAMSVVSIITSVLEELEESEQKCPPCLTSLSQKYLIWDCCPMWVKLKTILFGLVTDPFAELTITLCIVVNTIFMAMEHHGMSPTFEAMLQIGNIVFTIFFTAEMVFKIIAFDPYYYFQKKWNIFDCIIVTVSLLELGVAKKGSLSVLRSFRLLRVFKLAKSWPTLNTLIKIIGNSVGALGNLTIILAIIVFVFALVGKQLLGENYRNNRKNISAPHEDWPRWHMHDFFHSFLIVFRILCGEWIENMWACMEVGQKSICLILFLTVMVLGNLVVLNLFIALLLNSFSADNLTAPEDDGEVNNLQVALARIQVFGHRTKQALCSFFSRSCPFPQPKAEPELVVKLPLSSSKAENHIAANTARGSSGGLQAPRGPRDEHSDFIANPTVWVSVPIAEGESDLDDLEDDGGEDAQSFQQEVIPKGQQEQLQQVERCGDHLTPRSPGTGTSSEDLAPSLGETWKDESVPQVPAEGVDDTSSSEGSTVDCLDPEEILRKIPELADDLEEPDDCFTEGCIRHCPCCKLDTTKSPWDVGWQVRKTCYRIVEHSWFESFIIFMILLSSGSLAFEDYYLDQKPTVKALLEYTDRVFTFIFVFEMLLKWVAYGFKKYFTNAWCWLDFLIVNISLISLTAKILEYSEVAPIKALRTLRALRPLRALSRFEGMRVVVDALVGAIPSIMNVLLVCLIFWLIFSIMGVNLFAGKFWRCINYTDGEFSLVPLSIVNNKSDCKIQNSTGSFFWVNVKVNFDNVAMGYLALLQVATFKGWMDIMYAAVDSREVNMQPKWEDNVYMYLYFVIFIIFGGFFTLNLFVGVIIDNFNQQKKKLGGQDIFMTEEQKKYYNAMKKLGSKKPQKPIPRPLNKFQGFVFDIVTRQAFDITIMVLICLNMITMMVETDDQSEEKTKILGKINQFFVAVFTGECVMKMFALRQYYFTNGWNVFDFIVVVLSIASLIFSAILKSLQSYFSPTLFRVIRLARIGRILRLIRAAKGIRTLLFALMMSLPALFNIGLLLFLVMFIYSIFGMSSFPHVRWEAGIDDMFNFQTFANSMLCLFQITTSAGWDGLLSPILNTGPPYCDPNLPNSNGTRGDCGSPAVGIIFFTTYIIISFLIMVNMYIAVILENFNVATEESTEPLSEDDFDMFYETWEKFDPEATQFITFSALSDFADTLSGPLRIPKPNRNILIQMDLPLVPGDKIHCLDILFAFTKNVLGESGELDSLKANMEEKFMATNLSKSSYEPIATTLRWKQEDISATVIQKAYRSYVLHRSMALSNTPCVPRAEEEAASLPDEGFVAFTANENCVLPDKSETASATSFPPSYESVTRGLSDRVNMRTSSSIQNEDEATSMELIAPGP
- Sequence (Q9NY72 23-215 partner): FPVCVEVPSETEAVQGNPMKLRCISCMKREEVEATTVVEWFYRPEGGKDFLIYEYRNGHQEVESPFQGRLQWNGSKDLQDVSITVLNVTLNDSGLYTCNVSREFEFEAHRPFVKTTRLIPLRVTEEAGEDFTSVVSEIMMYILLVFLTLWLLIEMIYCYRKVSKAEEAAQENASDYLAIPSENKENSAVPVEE
- Experimental details: Compound Profiling Human NaV1.8/β3 Cell Line—SyncroPatch384PE Assay (automated patch clamp, stably transfected CHO cells)
- Assay type: cell-based
- Reported conditions: P2 (IC50, inactivated state block), P2 measurement, inactivated state block; Nav1.8/b3 CHO cells, inactivation step −35 mV 10 sec; first set of compounds
Property: IC50

These recorded examples may help you get a feel for the data.
{"Compound": "C[S@@](=N)(=O)c1cc(NC(=O)c2c(Oc3ccc(OC(F)(F)F)cc3)cc(C(F)(F)F)c(Cl)c2F)ccn1 [Example 45A]", "Result": "< 5 nM"}
{"Compound": "Cc1nc(F)ccc1Oc1cc(C2CC2)c(C(F)(F)F)cc1C(=O)Nc1cccc([S@@](C)(=N)=O)c1 [Example 59A]", "Result": "< 5 nM"}
{"Compound": "Cc1nc(F)ccc1Oc1cc(C(F)(F)F)c(Cl)cc1C(=O)Nc1ccnc([S@](C)(=N)=O)c1 (single isomer, unassigned) [Example 6A]", "Result": "< 5 nM"}
{"Compound": "C[S@@](=N)(=O)c1cc(NC(=O)c2c(F)cc(C(F)(F)F)cc2Oc2ccc(OC(F)(F)F)cc2)ccn1 [Example 44A]", "Result": "< 5 nM"}
{"Compound": "C[S@@](=N)(=O)c1cccc(NC(=O)c2c(Oc3ccc(OC(F)(F)F)cc3)cc(C(F)(F)F)c(Cl)c2F)c1 [Example 50A]", "Result": "< 5 nM"}

The value of IC50 measured for the compound Cc1nc(F)ccc1Oc1cc(C2CC2)c(C(F)(F)F)cc1C(=O)Nc1ccnc([S@](C)(=N)=O)c1 [Example 58A] turned out to be < 5 nM

The value of IC50 measured for the compound Cc1nc(F)ccc1Oc1cc(C(F)(F)F)c(Cl)cc1C(=O)NC12CC(C(N)=O)(C1)C2 [Example 63A] turned out to be > 200 nM

The value of IC50 measured for the compound Cc1nc(F)ccc1Oc1cc(C2CC2)c(C(F)(F)F)c(C)c1C(=O)Nc1cccc([S@@](C)(=N)=O)c1 [Example 42A] turned out to be < 5 nM

====

- Assay target: human Nav1.8/b3 (Homo sapiens, UniProt Q9Y5Y9)
- Construct: expressed in transfected cells; host or cells: CHO
- Experimental details: Compound Profiling Human NaV1.8/β3 Cell Line—SyncroPatch384PE Assay (automated patch clamp, stably transfected CHO cells)
- Format: cell-based
- Reported conditions: P2 (IC50, inactivated state block), P2 measurement, inactivated state block; Nav1.8/b3 CHO cells, inactivation step −35 mV 10 sec; second set of compounds
Property: IC50

These recorded examples may help you get a feel for the data.
{"Molecule": "Cc1nc(F)ccc1Oc1ccc(C(F)(F)F)c(C)c1C(=O)Nc1cccc([S@@](C)(=O)=NC(=O)[C@@H]2CCCN2)c1 [Example 22B]", "Assay target": "human Nav1.8/b3 (Homo sapiens, UniProt Q9Y5Y9)", "IC50": "< 5 nM"}
{"Molecule": "Cc1nc(F)ccc1Oc1cc(C(F)(F)F)c(Cl)cc1C(=O)Nc1cccc([S@@](C)(=O)=NC(=O)[C@@H](C)O)c1 [Example 1B]", "Assay target": "human Nav1.8/b3 (Homo sapiens, UniProt Q9Y5Y9)", "IC50": "< 5 nM"}
{"Molecule": "Cc1nc(F)ccc1Oc1ccc(C(F)(F)F)c(F)c1C(=O)Nc1cccc([S@@](C)(=O)=NC(=O)[C@@H]2CCCN2)c1 [Example 21B]", "Assay target": "human Nav1.8/b3 (Homo sapiens, UniProt Q9Y5Y9)", "IC50": "5 to 50 nM"}
{"Molecule": "CNCC(=O)N=[S@](C)(=O)c1cccc(NC(=O)c2ccc(C(F)(F)F)cc2Oc2ccc(F)nc2C)c1 [Example 10B]", "Assay target": "human Nav1.8/b3 (Homo sapiens, UniProt Q9Y5Y9)", "IC50": "5 to 50 nM"}
{"Molecule": "CNCC(=O)N=[S@](C)(=O)c1cccc(NC(=O)c2cc(Cl)c(C(F)(F)F)cc2Oc2ccc(F)nc2C)c1 [Example 29B]", "Assay target": "human Nav1.8/b3 (Homo sapiens, UniProt Q9Y5Y9)", "IC50": "< 5 nM"}
{"Molecule": "Cc1nc(F)ccc1Oc1cc(C(F)(F)F)ccc1C(=O)Nc1cccc([S@@](C)(=O)=NC(=O)[C@@H](C)O)c1 [Example 13B]", "Assay target": "human Nav1.8/b3 (Homo sapiens, UniProt Q9Y5Y9)", "IC50": "5 to 50 nM"}

The value of IC50 measured for the molecule Cc1nc(F)ccc1Oc1ccc(C(F)(F)F)c(C)c1C(=O)Nc1cccc([S@@](C)(=O)=NC(=O)[C@H](C)O)c1 [Example 23B] turned out to be < 5 nM

The value of IC50 measured for the molecule Cc1nc(F)ccc1Oc1cc(C(F)(F)F)ccc1C(=O)Nc1cccc([S@@](C)(=O)=NC(=O)CO)c1 [Example 11B] turned out to be 5 to 50 nM
